Data provenance: patent US20240294914A1

Below, each entry is listed with its recorded cccDNA Editing in PHH A > G %.
Tested on: HBV cccDNA
Experiment: Base editing of HBV cccDNA in primary human hepatocytes (HBV-PHH)
Assay type: cell-based, Hepatitis B virus
Conditions: HBV-PHH system
Just the number please, in %, no unit attached.

# MOLECULE, cccDNA Editing in PHH A > G %, %
rows = [
    ("ABE-41: guide RNA SEQ ID NO: 5513 (nucleic acid, chemistry not fully specified) guide: AGAAGATGAGGCATAGCAGCGTTTTAGAGCTAGAAATAGCAAGTTAAAATAAGGCTAGTCCGTTATCAACTTGAAAAAGTGGCACCGAGTCGGTGCTTTT", 56.0),
    ("PolyA-NGC1: guide RNA SEQ ID NO: 5499 (nucleic acid, chemistry not fully specified) guide: GACCCTTATAAAGAATTTGGGTTTTAGAGCTAGAAATAGCAAGTTAAAATAAGGCTAGTCCGTTATCAACTTGAAAAAGTGGCACCGAGTCGGTGCTTTT", 60.4),
    ("PolyA-NGC2: guide RNA SEQ ID NO: 5500 (nucleic acid, chemistry not fully specified) guide: TTTATAAGGGTCGATGTCCAGTTTTAGAGCTAGAAATAGCAAGTTAAAATAAGGCTAGTCCGTTATCAACTTGAAAAAGTGGCACCGAGTCGGTGCTTTT", 62.9),
]

# ---- query molecule ----
The molecule identified as ABE-133: guide RNA SEQ ID NO: 5516 (nucleic acid, chemistry not fully specified) guide: GAAGATGAGGCATAGCAGCAGTTTTAGAGCTAGAAATAGCAAGTTAAAATAAGGCTAGTCCGTTATCAACTTGAAAAAGTGGCACCGAGTCGGTGCTTTT registered its cccDNA Editing in PHH A > G % at 76.0
